Numbers sourced from paper PMC8102066.

- Subject of test: mGluR3-3xTM4 (Rattus norvegicus, UniProt P31422, F690A/G694A/S686A)
- Sequence (P31422 23-879 S686A/F690A/G694A): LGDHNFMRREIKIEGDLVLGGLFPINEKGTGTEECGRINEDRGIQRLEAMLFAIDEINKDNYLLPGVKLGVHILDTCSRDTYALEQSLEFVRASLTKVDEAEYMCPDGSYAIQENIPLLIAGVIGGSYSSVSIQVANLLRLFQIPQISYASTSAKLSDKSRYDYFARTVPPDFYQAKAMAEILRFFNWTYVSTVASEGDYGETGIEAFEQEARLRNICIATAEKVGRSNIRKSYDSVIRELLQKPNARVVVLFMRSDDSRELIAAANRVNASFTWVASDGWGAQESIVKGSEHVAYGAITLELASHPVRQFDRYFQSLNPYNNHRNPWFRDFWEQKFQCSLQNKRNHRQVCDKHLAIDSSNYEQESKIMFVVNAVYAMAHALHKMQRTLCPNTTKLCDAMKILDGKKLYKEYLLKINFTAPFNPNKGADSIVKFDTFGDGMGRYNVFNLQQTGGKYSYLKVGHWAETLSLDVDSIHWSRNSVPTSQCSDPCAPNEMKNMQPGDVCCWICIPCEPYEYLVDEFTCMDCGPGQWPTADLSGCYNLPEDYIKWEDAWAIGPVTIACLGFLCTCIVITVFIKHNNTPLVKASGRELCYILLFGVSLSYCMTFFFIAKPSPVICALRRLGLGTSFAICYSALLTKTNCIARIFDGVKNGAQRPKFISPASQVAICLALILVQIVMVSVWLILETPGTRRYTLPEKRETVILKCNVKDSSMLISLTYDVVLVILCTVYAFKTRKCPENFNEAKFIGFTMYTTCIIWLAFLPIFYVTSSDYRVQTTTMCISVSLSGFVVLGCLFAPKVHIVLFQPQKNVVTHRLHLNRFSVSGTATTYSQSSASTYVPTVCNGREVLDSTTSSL
- Test details: Calcium imaging (G protein chimera, GCaMP6f) in HEK 293 T cells
- Run parameters: read-out: Glutamate EC50 (micromolar); calcium imaging; Fig 3F source data
Measurement label: EC50 (µM)
Form entry: value (µM) — number only.

Check the records and state EC50 for N[C@@H](CCC(=O)O)C(=O)O [glutamate]
11

###

- Subject of test: mGluR3-G694A (Rattus norvegicus, UniProt P31422, G694A)
- Sequence (P31422 23-879 G694A): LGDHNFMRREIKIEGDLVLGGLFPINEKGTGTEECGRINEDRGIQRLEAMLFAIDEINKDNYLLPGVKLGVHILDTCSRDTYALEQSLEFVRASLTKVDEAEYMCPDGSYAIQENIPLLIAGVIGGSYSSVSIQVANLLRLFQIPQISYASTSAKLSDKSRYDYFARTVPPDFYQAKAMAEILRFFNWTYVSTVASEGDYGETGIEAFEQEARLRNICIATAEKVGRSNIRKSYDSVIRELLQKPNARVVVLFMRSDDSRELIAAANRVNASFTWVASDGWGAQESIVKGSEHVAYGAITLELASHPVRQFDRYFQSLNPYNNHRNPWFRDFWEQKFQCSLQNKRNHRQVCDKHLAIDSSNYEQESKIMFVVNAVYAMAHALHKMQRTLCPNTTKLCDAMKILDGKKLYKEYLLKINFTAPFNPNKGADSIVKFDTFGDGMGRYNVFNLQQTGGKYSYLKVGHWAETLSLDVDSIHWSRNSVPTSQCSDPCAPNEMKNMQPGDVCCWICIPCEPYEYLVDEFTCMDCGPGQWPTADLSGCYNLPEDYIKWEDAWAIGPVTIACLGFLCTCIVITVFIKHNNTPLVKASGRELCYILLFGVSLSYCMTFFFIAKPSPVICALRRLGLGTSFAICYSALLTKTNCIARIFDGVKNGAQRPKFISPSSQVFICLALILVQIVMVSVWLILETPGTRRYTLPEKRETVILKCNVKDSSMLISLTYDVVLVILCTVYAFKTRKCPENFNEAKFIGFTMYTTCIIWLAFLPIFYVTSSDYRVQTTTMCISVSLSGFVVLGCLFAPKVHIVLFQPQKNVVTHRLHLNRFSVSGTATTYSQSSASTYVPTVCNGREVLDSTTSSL
- Test details: Calcium imaging in HEK 293 T cells
- Run parameters: read-out: Glutamate EC50 (micromolar); calcium imaging; Fig 3F source data
Measurement label: EC50 (µM)
Form entry: value (µM) — number only.

Check the records and state EC50 for N[C@@H](CCC(=O)O)C(=O)O [glutamate]
4.65
